meta.source: patent US20160296529A1

# Experimental Protocol: Single dose pharmacokinetics in animals, rat
# Format: in vivo, Sprague-Dawley rats
# Condition Notes: Sprague-Dawley, plasma, female, Formula I 60 mg/kg single oral dose, read-out: AUC
# Method: Pharmacokinetic studies were performed in various animal species dosed with the compound according to Formula II to determine the exposure to the compound according to Formula I as well as its apparent terminal half life (T1/2), when possible. […] Plasma concentrations of the compound according to Formula I and of the compound according to Formula II were determined by an LC-MS/MS method with a limit of quantification ≦10.0 ng/mL for both Formula I and Formula II for all species. […]
Assay Readout: AUC (µg·h/mL)
Give bare numbers, in µg·h/mL.

Value of AUC reported for the molecule `Nc1nc2cccc(-c3ccc(CN4CCS(=O)(=O)CC4)cc3)n2n1` is 123

---

# Experimental Protocol: Repeated dose pharmacokinetics in human
# Type: in vivo
# Condition Notes: plasma, po; human, steady state; Formula II 25 mg BID; read-out: Exposure (expressed as AUC)
Assay Readout: AUC (ng·h/mL)
Give bare numbers, in ng·h/mL.

• Nc1nc2cccc(-c3ccc(CN4CCS(=O)(=O)CC4)cc3)n2n1 = 8660

Attention now shifts to the item below.
Value of AUC reported for the molecule `O=C(Nc1nc2cccc(-c3ccc(CN4CCS(=O)(=O)CC4)cc3)n2n1)C1CC1` is 346

---

# Experimental Protocol: Single dose pharmacokinetics in animals, rat
# Assay type: in vivo, Sprague-Dawley rats
# Condition Notes: male, Sprague-Dawley, plasma, after Formula II 45 mg/kg oral, read-out: exposure (expressed as AUC)
Assay Readout: AUC
Include the unit after the number when you answer.

// each compound listed below needs its AUC
1. Nc1nc2cccc(-c3ccc(CN4CCS(=O)(=O)CC4)cc3)n2n1 [Formula I]
2. O=C(Nc1nc2cccc(-c3ccc(CN4CCS(=O)(=O)CC4)cc3)n2n1)C1CC1 [Formula II]

13300 ng·h/mL
33300 ng·h/mL

---

# Experimental Protocol: Single dose pharmacokinetics in animals, dog
# Type: in vivo, Beagle dogs
# Condition Notes: Beagle, plasma, male, Formula I 10 mg/kg single oral dose, read-out: AUC
Assay Readout: AUC (ng·h/mL)
Give bare numbers, in ng·h/mL.

Value of AUC reported for the compound `Nc1nc2cccc(-c3ccc(CN4CCS(=O)(=O)CC4)cc3)n2n1` is 49400

---

What AUC was measured for each of the following?
# Experimental Protocol: Repeated dose pharmacokinetics in human
# Type: in vivo
# Condition Notes: plasma, po; human, steady state; Formula II 50 mg BID; read-out: Exposure (expressed as AUC)
Numbers only, in ng·h/mL.

• O=C(Nc1nc2cccc(-c3ccc(CN4CCS(=O)(=O)CC4)cc3)n2n1)C1CC1 = 758

Attention now shifts to the item below.
Value of AUC reported for the molecule `Nc1nc2cccc(-c3ccc(CN4CCS(=O)(=O)CC4)cc3)n2n1` is 15200

---

# Study System: Recombinant human TYK2 catalytic domain (Homo sapiens, UniProt P29597)
# Construct: amino acids 871-1187; catalog number 08-147; GST; purchased Carna Biosciences 08-147
# Sequence (P29597 871-1187): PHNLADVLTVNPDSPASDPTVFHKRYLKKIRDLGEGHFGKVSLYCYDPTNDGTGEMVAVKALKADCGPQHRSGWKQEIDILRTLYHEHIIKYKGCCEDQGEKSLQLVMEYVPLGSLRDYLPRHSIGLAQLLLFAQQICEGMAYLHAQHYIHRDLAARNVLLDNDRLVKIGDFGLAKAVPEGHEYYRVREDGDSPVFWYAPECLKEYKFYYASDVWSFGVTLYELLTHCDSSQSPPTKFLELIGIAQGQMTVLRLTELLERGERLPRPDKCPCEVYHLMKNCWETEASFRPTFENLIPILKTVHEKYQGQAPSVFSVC
# Experimental Protocol: TYK2 inhibition assay
# Type: biochemical
# Condition Notes: average; read-out: IC50 (average)
Assay Readout: IC50

Value of IC50 reported for the compound `Nc1nc2cccc(-c3ccc(CN4CCS(=O)(=O)CC4)cc3)n2n1` is > 3 µM
